src = paper PMC5553892

- target: RORd1 (Oryzias latipes)
- Construct: gene rorca
- Sequence (H2LFF5 98-473): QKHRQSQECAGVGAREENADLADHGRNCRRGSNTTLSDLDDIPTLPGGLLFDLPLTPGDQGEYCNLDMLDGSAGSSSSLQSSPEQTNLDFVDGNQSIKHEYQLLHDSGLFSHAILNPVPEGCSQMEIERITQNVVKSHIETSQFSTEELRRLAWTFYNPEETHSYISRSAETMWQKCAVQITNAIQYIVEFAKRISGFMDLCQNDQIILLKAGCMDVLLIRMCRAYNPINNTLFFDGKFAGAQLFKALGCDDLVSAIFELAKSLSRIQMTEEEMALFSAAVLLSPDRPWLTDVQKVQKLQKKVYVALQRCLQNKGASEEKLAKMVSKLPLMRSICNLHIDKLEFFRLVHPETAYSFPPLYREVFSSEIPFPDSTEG
- measurement-notes: Gal4-RORd1 LBD luciferase reporter assay in stable HEK293 cells (weak agonist, […], EC50 not calculable)
- Type: cell-based
quantity-name: EC50

Record request: EC50 value, item CC1=C(/C=C/C(C)=C/C=C/C(C)=C/C(=O)O)C(C)(C)CCC1 [ATRA, all-trans retinoic acid]
> 10 µM

* * *

- target: RORd1 (Oryzias latipes)
- Construct: gene rorca
- measurement-notes: Gal4-RORd1 LBD luciferase reporter assay in stable HEK293 cells (agonist)
- Type: cell-based
quantity-name: EC50 (nM)
Give a bare numeral; the unit nM is implied.

Checklist item: EC50 tested on RORd1 (Oryzias latipes), entry CC1=C(/C=C/C(C)=C/C=C/C(C)=C/C(=O)O)C(C)(C)CCC1O (stereo not drawn) [4OH-ATRA, all-trans 4-hydroxyretinoic acid] , value?
539

Lab note: need EC50 with RORd1 (Oryzias latipes) for entry CC1=C(/C=C/C(C)=C/C=C/C(C)=C/C(=O)O)C(C)(C)CCC1=O [4 K–ATRA, all-trans 4-ketoretinoic acid] , please look it up.
737
